These entries and their values trace back to patent US4848349A.

- experimental-protocol: Biliary excretion after intraduodenal injection (enterohepatic circulation)
- Assay type: in vivo
- run-parameters: injected intraduodenally; bile collected for two hours; read-out: injected conjugate excreted in the bile
measurement-name: dose excreted at 2 h

I would be grateful if you could share the reported dose excreted at 2 h for `C[C@H](CCC(=O)NCC(=O)O)[C@H]1CC[C@H]2[C@@H]3[C@H](O)C[C@@H]4C[C@H](OC(=S)Nc5ccc6c(c5)C5(OC6=O)c6ccc(O)cc6Oc6cc(O)ccc65)CC[C@]4(C)[C@H]3C[C@H](O)[C@]12C` .
> 90%
